The reported numbers originate from the supplement of paper PMC6555819.

Tested on: PXR homodimer (NR concentration 270 nM)
Experiment: PBM binding z-score (relative to random genomic background probes); higher = stronger binding; sequences stand for … in GC…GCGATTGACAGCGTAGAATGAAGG
Category | rule: reported PBM binding z-score within range, see Low (below -0.2), Medium (-0.2 to below 0.7), High (0.7 or more)

Observe how each entry below is paired with its result.
# Residue sequence, Assayed system, Qualitative label
rows = [
    ("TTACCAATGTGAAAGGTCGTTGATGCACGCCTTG", "PXR homodimer (NR concentration 270 nM)", "Medium"),
    ("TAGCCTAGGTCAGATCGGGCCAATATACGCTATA", "PXR homodimer (NR concentration 270 nM)", "Low"),
    ("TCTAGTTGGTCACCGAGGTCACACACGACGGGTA", "PXR homodimer (NR concentration 270 nM)", "High"),
]

IN: Tag the class for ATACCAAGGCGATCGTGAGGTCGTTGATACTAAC
OUT: High

IN: Tag the class for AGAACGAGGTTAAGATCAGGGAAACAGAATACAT
OUT: High

IN: Tag the class for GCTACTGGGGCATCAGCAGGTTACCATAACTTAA
OUT: Low

IN: Tag the class for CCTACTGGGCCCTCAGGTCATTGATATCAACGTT
OUT: Medium

IN: Tag the class for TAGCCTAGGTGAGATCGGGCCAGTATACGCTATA
OUT: Low

IN: Tag the class for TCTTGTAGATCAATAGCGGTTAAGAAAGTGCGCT
OUT: Medium

IN: Tag the class for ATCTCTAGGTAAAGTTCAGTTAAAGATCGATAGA
OUT: High
